System: human ABCB1
Construct: expressed in transfected cells; host or cells: MDCK-II cells stably transduced with hABCB1 cDNA (made in the authors' institute)
Assay: Transepithelial transport, MDCK-II cells transduced with hABCB1
Format: in vitro ADME
Conditions: MDCK-MDR1, pH 7.4, with zosuquidar 5 µM, MDCK-II hABCB1, 5 µM, + zosuquidar 5 µM, read-out: efflux transport ratio r
Text: Polarized Madin-Darby Canine Kidney (MDCK-II) cells (ECACC 00062107) stably transduced with either human (h) ABCB1, hABCG2 or mouse (m) Abcg2 cDNA were generated in our institute between 1995–2005. The proper identity and functionality, such as highly characteristic growth and drug transporter properties, including inhibitor sensitivity, were regularly checked in these epithelial cells. Mycoplasma routinely tested negative in these cells. […]
metric: efflux ratio at 8 h, 5 µM
Just the number, please, no unit attached.

Problem: efflux ratio at 8 h, 5 µM lookup needed for `C[C@H]1CNC(=O)c2cnn3ccc(nc23)N[C@H](C)c2cc(F)ccc2O1` , thanks.
Result: 1.1

---

experiment: 4-h oral plasma pharmacokinetics and tissue distribution, male wild-type and Oatp1a/1b−/− mice; assay type: in vivo; conditions: male, FVB, mouse, brain, po, 10 mg/kg, Table S2, male Oatp1a/1b−/− mice, 10 mg/kg oral, read-out: Brain-to-plasma ratio
metric: Kp at 4 h
Just the number, please, no unit attached.

Problem: Kp at 4 h lookup needed for C[C@H]1CNC(=O)c2cnn3ccc(nc23)N[C@H](C)c2cc(F)ccc2O1 [repotrectinib] , thanks.
Result: 0.18

---

assay: 8-h pilot oral plasma pharmacokinetics and tissue distribution, female wild-type, Abcb1a/1b;Abcg2−/− and Oatp1a/1b−/− mice; assay type: in vivo; conditions: female, FVB, mouse, liver, po, 10 mg/kg, Table S1; female Abcb1a/1b;Abcg2−/− mice, 10 mg/kg oral, 8 h; read-out: Liver-to-plasma ratio
metric: Kp at 8 h
Just the number, please, no unit attached.

Problem: Kp at 8 h lookup needed for `C[C@H]1CNC(=O)c2cnn3ccc(nc23)N[C@H](C)c2cc(F)ccc2O1` , thanks.
Result: 4.21

---

assay: 8-h oral plasma pharmacokinetics and tissue distribution, female wild-type, Cyp3a−/− and Cyp3aXAV mice; assay type: in vivo; conditions: female, FVB, mouse, plasma, po, 10 mg/kg, elimination half-life; female Cyp3aXAV mice, 10 mg/kg oral, 8 h
metric: half-life (h)
Reply numerically in h, unit not repeated.

Problem: half-life lookup needed for C[C@H]1CNC(=O)c2cnn3ccc(nc23)N[C@H](C)c2cc(F)ccc2O1 [repotrectinib] , thanks.
Result: 1.6

---

assay: 8-h oral plasma pharmacokinetics and tissue distribution, female wild-type, Cyp3a−/− and Cyp3aXAV mice; assay type: in vivo; details: female, wild-type (>99% FVB background), mouse, brain/plasma, po, 10 mg/kg, female wild-type mice, 10 mg/kg oral, 8 h; read-out: Brain-to-plasma ratio
metric: Kp at 8 h
Just the number, please, no unit attached.

Problem: Kp at 8 h lookup needed for C[C@H]1CNC(=O)c2cnn3ccc(nc23)N[C@H](C)c2cc(F)ccc2O1 [repotrectinib] , thanks.
Result: 0.26

---

assay: 4-h oral plasma pharmacokinetics and tissue distribution, male wild-type and ABC transporter knockout mice; type: in vivo; conditions: male, FVB, mouse, plasma, po, 10 mg/kg, median (range); male Abcg2−/− mice, 10 mg/kg oral, 4 h
metric: Tmax (min)
Reply numerically in min, unit not repeated.

Problem: Tmax lookup needed for `C[C@H]1CNC(=O)c2cnn3ccc(nc23)N[C@H](C)c2cc(F)ccc2O1` , thanks.
Result: 15
